# MEASUREMENT NOTES: NCI Yeast Anticancer Drug Screen. Data for the sgs1 mgt1 strain (AID 161);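 note: 0% = growth of cultures given vehicle only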
# ASSAY SETUP: S. cerevisiae sgs1 mgt1 strain, at 50.0 µM, hits give high values
This is part of a sample that, as a whole, favours compounds with a hit. Of some 79,000 tested, about 15% had one in any assay.
Record form. Attribute: growth inhibition. Fill in for each entry.
One number for each entry, in %.

# count of solved cases: 5
MOLECULE: COC(=O)C1CCN(Cc2ccccc2)CC1=O (stereo not given)
growth inhibition [%]: 93.2
//
MOLECULE: COc1ccc(NC(=O)C(Cc2ccccc2)NC(C)=O)cc1 (stereo not given)
growth inhibition [%]: 3.15
//
MOLECULE: CC(C)CCCC(=O)CCCCCCC(=O)CCN(O)C(=O)C(N)CO (stereo not given)
growth inhibition [%]: 94.2
//
MOLECULE: CCOC(CCl)Oc1c(C(C)C)cc(C(C)C)c(Cl)c1C (stereo not given)
growth inhibition [%]: 97.7
//
MOLECULE: CNC(=O)OCc1c(COC(=O)NC)c(-c2ccc(OC)cc2)n2c1CCC2
growth inhibition [%]: 70.9

// for each molecule below, give its growth inhibition
1. COC(=O)CC1SC(=S)N(Cc2ccc(Cl)cc2)C1=O (stereo not given)
2. CC(=O)O[C@H]1CC[C@@]2(C)C(CC[C@]3(C)C2CC=C2[C@@H]4CC(C)(C)CC[C@]4(C(=O)NCCN(C)C)CCC23C)C1(C)C (stereo not given in full)
3. CCC1=C(C)/C(=C/c2[nH]c(C(Br)Br)c(CC)c2C)N=C1C(Br)Br
4. OC(c1cc(-c2ccc(Cl)c(Cl)c2)nc2ccccc12)C1CCCCN1 (stereo not given)
5. ClC1=CC(Cl)=C2N=C(C(Cl)(Cl)Cl)N=C3N=C(C(Cl)(Cl)Cl)N=C1N32

Found:
1. 98.5
2. 72.7
3. 26
4. 9.85
5. 99.2

Source of measurements: PubChem BioAssay (NCI)
